- Test system: fecal trypsin
- assayNotes: Method 2a: Efficacy of Protease Inhibitors in Fecal Trypsin
- Format: biochemical
- statedConditions: pooled infant fecal suspension; 25° C., 405 nm corrected by 490 nm

{"columns": ["compound", "targetOrTestSystem", "IC50, µM"],
 "data": [
  ["N=C(N)c1ccc(OCCCCCCOc2ccc(C(=N)N)cc2)cc1 [hexamidine diisethionate]", "fecal trypsin", 2.3]
]}

Values from patent US6207596A
